Reported Heat stability (90° C., 3 hours) (%) by item:
assay: Thermal (heat/hydrolytic) stability, 90° C., 3 hours, transmittance; assay type: physicochemical; settings: turbidity number
property measured: Heat stability (90° C., 3 hours) (%)

{"molecule": "CCCCCCCCCCCCc1ccc(S(=O)(=O)O)cc1.CCCCCCCCCCCCc1ccc(S(=O)(=O)O)cc1.NCCCOCCCCOCCCN [Example 24]", "property measured": "Heat stability (90° C., 3 hours) (%)", "unit abbrev": "%", "measured value": 100}
{"molecule": "CCCCCCCCCCCCc1ccc(S(=O)(=O)O)cc1.CCCCCCCCCCCCc1ccc(S(=O)(=O)O)cc1.CN(C)CCCNCCCN(C)C.Cl [Example 38]", "property measured": "Heat stability (90° C., 3 hours) (%)", "unit abbrev": "%", "measured value": 31}
{"molecule": "CCCCCCCCCCCCc1ccc(S(=O)(=O)O)cc1.CCCCCCCCCCCCc1ccc(S(=O)(=O)O)cc1.NCCCCCCN [Example 21]", "property measured": "Heat stability (90° C., 3 hours) (%)", "unit abbrev": "%", "measured value": 100}
{"molecule": "CCCCCCCCCCCCc1ccc(S(=O)(=O)O)cc1.CCCCCCCCCCCCc1ccc(S(=O)(=O)O)cc1.NCCCCN [Example 23]", "property measured": "Heat stability (90° C., 3 hours) (%)", "unit abbrev": "%", "measured value": 20}

----------
test: Interfacial tension (IFT), spinning drop; assay type: physicochemical; conditions: 0.1 g/l; 40° C., 4500 rpm
property measured: IFT (mN/m) 0.1 g/l

{"compound": "CCCCCCCCCCCCc1ccc(S(=O)(=O)O)cc1.CCCCCCCCCCCCc1ccc(S(=O)(=O)O)cc1.NCCCCN", "unit abbrev": "mN/m", "measured value": 0.120}
{"compound": "CCCCCCCCCCCCc1ccc(S(=O)(=O)O)cc1.CCCCCCCCCCCCc1ccc(S(=O)(=O)O)cc1.NCCCOCCCCOCCCN", "unit abbrev": "mN/m", "measured value": 0.042}
{"compound": "CCCCCCCCCCCCc1ccc(S(=O)(=O)O)cc1.CCCCCCCCCCCCc1ccc(S(=O)(=O)O)cc1.CN(C)CCCNCCCN(C)C.Cl", "unit abbrev": "mN/m", "measured value": 0.15}
{"compound": "CCCCCCCCCCCCc1ccc(S(=O)(=O)O)cc1.CCCCCCCCCCCCc1ccc(S(=O)(=O)O)cc1.NCCCCCCN", "unit abbrev": "mN/m", "measured value": 0.019}

----------
Reported IFT (mN/m) 1.0 g/l by item:
assay: Interfacial tension (IFT), spinning drop; assay type: physicochemical; settings: 1.0 g/l; 40° C., 4500 rpm

{"compound": "CCCCCCCCCCCCc1ccc(S(=O)(=O)O)cc1.CCCCCCCCCCCCc1ccc(S(=O)(=O)O)cc1.CN(C)CCCNCCCN(C)C.Cl", "IFT (mN/m) 1.0 g/l": "0.16 mN/m"}
{"compound": "CCCCCCCCCCCCc1ccc(S(=O)(=O)O)cc1.CCCCCCCCCCCCc1ccc(S(=O)(=O)O)cc1.NCCCCN", "IFT (mN/m) 1.0 g/l": "0.170 mN/m"}
{"compound": "CCCCCCCCCCCCc1ccc(S(=O)(=O)O)cc1.CCCCCCCCCCCCc1ccc(S(=O)(=O)O)cc1.NCCCOCCCCOCCCN", "IFT (mN/m) 1.0 g/l": "0.103 mN/m"}
{"compound": "CCCCCCCCCCCCc1ccc(S(=O)(=O)O)cc1.CCCCCCCCCCCCc1ccc(S(=O)(=O)O)cc1.NCCCCCCN", "IFT (mN/m) 1.0 g/l": "0.015 mN/m"}
